Data origin: ChEMBL document CHEMBL1129328

# system: Glutamate NMDA receptor
# method: Compound was tested for NMDA receptor antagonistic activity by measuring its ability to inhibit depolarizations induced by 40 uM NMDA in rat cortical slice preparation.
# Assay type: functional
The label is yes (1) for IC50 below 30 µM and no (0) for IC50 equal to or exceeding 30 µM.

Solved cases (10 shown):
| compound | qualitativeLabel |
| --- | --- |
| O=C(O)[C@@H]1C[C@H]2C[C@@H](CCc3nnn[nH]3)CC[C@@H]2CN1 | no (0) |
| O=C(O)[C@@H]1C[C@H]2C[C@@H](CCc3nn[nH]n3)CC[C@H]2CN1 [TEZAMPANEL ANHYDROUS] | no (0) |
| CC(Cc1nnn[nH]1)[C@H]1CC[C@H]2CN[C@H](C(=O)O)C[C@H]2C1 (some centres undefined) | no (0) |
| O=C(O)[C@@H]1C[C@H]2C[C@@H](OCc3nn[nH]n3)CC[C@H]2CN1 | yes (1) |
| O=C(O)[C@@H]1C[C@H]2C[C@@H](C(Cc3nnn[nH]3)c3ccccc3)CC[C@H]2CN1 (some centres undefined) | no (0) |
| O=C(O)[C@H]1C[C@H]2CC(CCc3nnn[nH]3)CC[C@H]2CN1 (some centres undefined) | no (0) |
| O=C(O)[C@@H]1C[C@H]2C[C@@H](CCCc3nnn[nH]3)CC[C@H]2CN1 | no (0) |
| O=C(O)[C@@H]1C[C@H]2C[C@H](OCc3nn[nH]n3)CC[C@H]2CN1 | yes (1) |
| O=C(O)[C@@H]1C[C@H]2C[C@@H](c3nnn[nH]3)CC[C@H]2CN1 | yes (1) |
| O=C(O)[C@@H]1C[C@H]2C[C@@H](NCc3nn[nH]n3)CC[C@H]2CN1 | no (0) |

State whether 30 µM exceeds IC50 recorded for O=C(O)[C@@H]1C[C@H]2C[C@@H](CCCCc3nnn[nH]3)CC[C@H]2CN1 .
no (0)

State whether 30 µM exceeds IC50 recorded for O=C(O)[C@@H]1C[C@H]2C[C@@H](Cc3nnn[nH]3)CC[C@H]2CN1 .
yes (1)

State whether 30 µM exceeds IC50 recorded for CN(Cc1nn[nH]n1)[C@H]1CC[C@H]2CN[C@H](C(=O)O)C[C@H]2C1 .
no (0)

State whether 30 µM exceeds IC50 recorded for O=C(O)C1Cc2cc(CCc3nnn[nH]3)ccc2CN1 (centres undefined) .
no (0)

----------
# system: Glutamate receptor ionotropic, kainate
# Assay type: functional
pIC50: −log10 of the molar value.
reportedMetric: pIC50

Reference set, count: 5
| compound | system | result |
| --- | --- | --- |
| O=C(O)[C@@H]1C[C@H]2C[C@@H](CCc3nn[nH]n3)CC[C@H]2CN1 [TEZAMPANEL ANHYDROUS] | Glutamate receptor ionotropic, kainate | 4.50 |
| O=C(O)[C@@H]1NCC[C@H]2CC(CCc3nnn[nH]3)CC[C@H]21 (stereo partly drawn) | Glutamate receptor ionotropic, kainate | < 4.00 |
| O=C(O)[C@@H]1C[C@H]2C[C@H](OCc3nn[nH]n3)CC[C@H]2CN1 | Glutamate receptor ionotropic, kainate | < 4.00 |
| O=C(O)[C@@H]1C[C@H]2C[C@@H](NCc3nn[nH]n3)CC[C@H]2CN1 | Glutamate receptor ionotropic, kainate | < 4.00 |
| O=C(O)[C@@H]1C[C@H]2C[C@@H](CCc3nnn[nH]3)CC[C@@H]2CN1 | Glutamate receptor ionotropic, kainate | < 4.00 |

Entry CC(Cc1nnn[nH]1)[C@H]1CC[C@H]2CN[C@H](C(=O)O)C[C@H]2C1 (stereo partly drawn) ; assay system Glutamate receptor ionotropic, kainate; pIC50 recorded at 4.24

Entry O=C(O)[C@@H]1C[C@H]2C[C@@H](CCCCc3nnn[nH]3)CC[C@H]2CN1 ; assay system Glutamate receptor ionotropic, kainate; pIC50 recorded at > 4.00

Entry O=C(O)[C@@H]1C[C@H]2C[C@@H](C(Cc3nnn[nH]3)c3ccccc3)CC[C@H]2CN1 (stereo partly drawn) ; assay system Glutamate receptor ionotropic, kainate; pIC50 recorded at 4.63

----------
# system: Glutamate receptor ionotropic, kainate
# method: Binding affinity at Ionotropic glutamate receptor kainate in rat cortical tissue by [3H]-kainic acid displacement.
In this section, each of the molecules is paired with its reported IC50.
Form entry: value (µM) — number only.

| molecule | system | IC50 / µM |
| --- | --- | --- |
| O=C(O)[C@@H]1C[C@H]2C[C@H](CCc3nnn[nH]3)CC[C@H]2CN1 | Glutamate receptor ionotropic, kainate | 180 |

# IC50 of O=C(O)[C@@H]1C[C@H]2C[C@@H](CCc3nn[nH]n3)CC[C@H]2CN1 [TEZAMPANEL ANHYDROUS] = 247

----------
# system: Glutamate NMDA receptor
# method: Binding affinity at N-methyl-D-aspartate glutamate receptor in rat cortical tissue by [3H]-CGS- 19755 displacement.
reportedMetric: pIC50
pIC50 is defined as minus the log10 of a concentration measured in mol/L.

Reference set, count: 2
| inputSmiles | pIC50 |
| --- | --- |
| O=C(O)[C@@H]1C[C@H]2C[C@H](OCc3nn[nH]n3)CC[C@H]2CN1 | 5.28 |
| CN(Cc1nn[nH]n1)[C@H]1CC[C@H]2CN[C@H](C(=O)O)C[C@H]2C1 | 4.18 |

# pIC50 of O=C(O)[C@@H]1C[C@H]2C[C@@H](NCc3nn[nH]n3)CC[C@H]2CN1 = 4.94

----------
# system: Glutamate receptor ionotropic, AMPA (Rattus norvegicus, UniProt P19490+P19491+P19492+P19493)
# method: Binding affinity at Ionotropic glutamate receptor AMPA in rat cortical tissue by [3H]AMPA displacement.
reportedMetric: pIC50
pIC50 is defined as minus the log10 of a concentration measured in mol/L.

Reference set, count: 3
| compound | resultNumber |
| --- | --- |
| O=C(O)[C@@H]1C[C@H]2C[C@@H](C(Cc3nnn[nH]3)c3ccccc3)CC[C@H]2CN1 (stereo partly drawn) | 5.01 |
| O=C(O)[C@@H]1C[C@H]2C[C@@H](CCCCc3nnn[nH]3)CC[C@H]2CN1 | 4.24 |
| CC(C[C@H]1CC[C@H]2CN[C@H](C(=O)O)C[C@H]2C1)c1nnn[nH]1 (stereo partly drawn) | 5.38 |

Now for a further compound.
# pIC50 of O=C(O)[C@@H]1C[C@H]2C[C@@H](OCc3nn[nH]n3)CC[C@H]2CN1 = 4.62

----------
In this section, each of the molecules is paired with its reported IC50.
# system: Glutamate receptor ionotropic, kainate
# method: Binding affinity at Ionotropic glutamate receptor kainate in rat cortical tissue by [3H]-kainic acid displacement.

# IC50 of O=C(O)[C@@H]1C[C@H]2C[C@@H](CCc3nnn[nH]3)CC[C@@H]2CN1 = > 100 µM

# IC50 of O=C(O)[C@@H]1C[C@H]2C[C@@H](Cc3nnn[nH]3)CC[C@H]2CN1 = > 100 µM

# IC50 of O=C(O)[C@@H]1C[C@H]2C[C@@H](C(Cc3nnn[nH]3)c3ccccc3)CC[C@H]2CN1 (stereo partly drawn) = > 100 µM

# IC50 of O=C(O)[C@@H]1C[C@H]2C[C@@H](CCCCc3nnn[nH]3)CC[C@H]2CN1 = > 100 µM

# IC50 of O=C(O)[C@@H]1C[C@H]2C[C@@H](c3nnn[nH]3)CC[C@H]2CN1 = 31.8 µM

# IC50 of CC(C[C@H]1CC[C@H]2CN[C@H](C(=O)O)C[C@H]2C1)c1nnn[nH]1 (stereo partly drawn) = 27.3 µM

# IC50 of CN(Cc1nn[nH]n1)[C@H]1CC[C@H]2CN[C@H](C(=O)O)C[C@H]2C1 = > 100 µM

# IC50 of O=C(O)[C@@H]1C[C@H]2C[C@@H](CCCc3nnn[nH]3)CC[C@H]2CN1 = 18.7 µM

----------
# system: Glutamate receptor ionotropic, AMPA (Rattus norvegicus, UniProt P19490+P19491+P19492+P19493)
# method: Binding affinity at Ionotropic glutamate receptor AMPA in rat cortical tissue by [3H]AMPA displacement.
reportedMetric: pIC50
pIC50 is defined as minus the log10 of a concentration measured in mol/L.

Reference set, count: 5
| compound | pIC50 |
| --- | --- |
| O=CN(Cc1nn[nH]n1)[C@H]1CC[C@H]2CN[C@H](C(=O)O)C[C@H]2C1 | 4.64 |
| CC(Cc1nnn[nH]1)[C@H]1CC[C@H]2CN[C@H](C(=O)O)C[C@H]2C1 (some centres undefined) | 5.52 |
| O=C(O)[C@@H]1C[C@H]2C[C@H](CCc3nnn[nH]3)CC[C@H]2CN1 | 4.22 |
| O=C(O)[C@@H]1C[C@H]2C[C@@H](Cc3nnn[nH]3)CC[C@H]2CN1 | 4.07 |
| O=C(O)[C@@H]1C[C@H]2C[C@@H](c3nnn[nH]3)CC[C@H]2CN1 | 4.89 |

Now for a further compound.
# pIC50 of O=C(O)[C@@H]1C[C@H]2C[C@@H](CCCc3nnn[nH]3)CC[C@H]2CN1 = 4.77
